- Test system: HeLa
- test_details: Primary qHTS to identify gynecologic anti-cancer compounds using libraries of approved drugs and bioactive compounds (AID 1345084); also: nearly all actives have a fitted effect of over 55% in size
- particulars: Gynecologic cancer cell panel viability, ATPlite luminescence, 48 h; series mostly up to 57.5 µM
Results filed as inconclusive are left out. Activity calls are given as the source filed them. Calls follow the shape of the dose curve; as a rule, active = well fitted cell-killing curve with a large enough effect; inconclusive = small, poorly fitted or top-dose-only effect, or effect the other way; inactive = flat fitted curve, though single readings scatter.
property: activity change, negative = cytotoxicity

Use these answered entries as a reference point.
COC(=O)C(CC1(O)c2ccccc2N2C(=O)C(C)(C)N(O)C21)n1cnc2ccccc2c1=O (centres undefined) :: inactive
O=C(/C=C/c1ccc(O)cc1)OC[C@H]1O[C@@H](O/C(=C\c2ccccc2)C(=O)O)[C@H](O)[C@@H](O)[C@@H]1O :: inactive
C/C=C/C(=O)OC1/C=C/C(O)C(OC(C)=O)CCC(=O)OC1C (centres undefined) :: inactive
CC(=O)O[C@H]1[C@H](OC(=O)C(C)C)[C@]2(C)OC3(CC[C@]2(C)[C@H]2CCC[C@]4(CO4)[C@]12C)COC(=O)C3 (some centres undefined) :: inactive
Cc1c(NC(=O)N2CCOCC2)ccc2c1c1ccccc1n2C(C)C :: inactive

// input: 2 molecules below; output: activity change, negative = cytotoxicity for each
1. CCCCNc1nc(N)c2[nH]c(=O)n(Cc3ccc(OCCN(C)C)nc3)c2n1
2. O=C(O)C1(c2ccc(-c3ccc(Cl)c(Cl)c3)c(F)c2)CC1

Result:
["inactive", "inactive"]

State recorded activity change, negative = cytotoxicity for all listed molecules.
1. CC(CCO)CCC1C2(C)CCCC(C)(C)C2CC[C@@]1(C)O (some centres undefined)
2. C[C@H]1CCN2C[C@]34C[C@@]5(C(=O)Nc6c5ccc5c6OC=CC(C)(C)O5)C(C)(C)C3C[C@]12C(=O)N4C (some centres undefined)

Result:
1. inactive
2. inactive

Provenance of the data: PubChem BioAssay (NCATS)
